target_desc: Cytochrome P450 3A4 (Homo sapiens) (UniProt P08684)
Sequence (P08684 whole entry, looked up): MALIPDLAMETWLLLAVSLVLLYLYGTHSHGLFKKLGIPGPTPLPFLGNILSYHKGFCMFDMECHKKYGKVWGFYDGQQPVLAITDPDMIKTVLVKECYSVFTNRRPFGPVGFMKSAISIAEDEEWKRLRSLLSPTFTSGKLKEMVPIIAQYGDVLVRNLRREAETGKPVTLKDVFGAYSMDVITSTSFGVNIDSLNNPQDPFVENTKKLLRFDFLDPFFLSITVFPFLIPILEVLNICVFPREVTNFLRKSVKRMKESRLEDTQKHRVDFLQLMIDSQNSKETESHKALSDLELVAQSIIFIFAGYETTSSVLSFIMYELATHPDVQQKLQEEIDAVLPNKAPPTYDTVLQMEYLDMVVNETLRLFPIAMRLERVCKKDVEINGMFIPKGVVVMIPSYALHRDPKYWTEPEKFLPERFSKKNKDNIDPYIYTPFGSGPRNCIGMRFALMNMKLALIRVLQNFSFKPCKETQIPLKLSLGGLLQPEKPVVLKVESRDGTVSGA
procedure_details: qHTS Assay for Activators of Cytochrome P450 3A4 (AID 885); note: nearly all actives have a fitted effect of over 65% in size
stated_conditions: recombinant CYP3A4, Luciferin-PPXE luminescence, 60 min; series mostly up to 57.1 µM
Activity calls are given as the source filed them. Calls come from the whole dose curve; as a rule, active = well fitted activation curve with a large enough effect; inconclusive = small, poorly fitted or top-dose-only effect; inactive = no such curve, though single readings can be large or run the other way.

{"columns": ["structure", "outcome"],
 "data": [
  ["O[C@@](CCN1CCCCC1)(c1ccccc1)C1CCCCC1", "inactive"],
  ["COc1cccc(-c2nccc(NCc3cnc(C)cn3)n2)c1", "inactive"],
  ["CN=C1N[C@H](c2ccccc2)N(c2ccccc2)S1", "inactive"],
  ["N#Cc1cccc(NC(=O)N2CCCC3(CCN(C(=O)c4csnn4)CC3)C2)c1", "inactive"],
  ["COc1cc(O)c(C(=O)/C=C/c2ccc(OC)c(O)c2)c(OC)c1", "inactive"],
  ["O=c1c(-c2cccs2)nc2cncnc2n1Cc1ccc(F)cc1", "inactive"],
  ["CCNc1ncc2nc(-c3cn(C)c4ccccc34)c(=O)n(CCC#N)c2n1", "inactive"],
  ["COc1ccccc1-c1cncnc1NCc1ccccc1", "inactive"],
  ["COc1ccc(Oc2ncc3nc(-c4cccs4)c(=O)n(C)c3n2)cc1", "inactive"],
  ["Cc1cnc(CNc2nc(-c3ccc(C(=O)N(C)C)cc3)nc3ccccc23)cn1", "inactive"],
  ["COc1ccc2[nH]cc(CCNc3ncnc4ccc(-c5ccccc5C#N)cc34)c2c1", "inactive"]
]}

---

target_desc: 3',5'-cyclic-AMP phosphodiesterase 4B (Homo sapiens)
procedure_details: qHTS Assay for Inhibitors of PDE-IV (AID 607)
stated_conditions: HEK293 ACTOne CNG channel cells, membrane potential fluorescence; series mostly up to 22.9 µM
Results filed as inconclusive are left out. The source made the active and inactive calls. Calls follow the shape of the dose curve; as a rule, active = well fitted activation curve with a large enough effect in the main read-out, with a control signal flat (not every such curve was filed as active); inconclusive = small, poorly fitted or top-dose-only effect, or effect the other way, or a change in a side signal; inactive = flat fitted curve, though single readings scatter.
Possible outcomes: active, inactive

{"columns": ["structure", "target_desc", "class_assignment"],
 "data": [
  ["COc1ccc(Oc2ncc3ncc(=O)n(C4CC4)c3n2)cc1", "3',5'-cyclic-AMP phosphodiesterase 4B (Homo sapiens)", "inactive"],
  ["COc1ccccc1CN1CCC2(CC1)CCN(C(=O)c1ccncc1)CC2", "3',5'-cyclic-AMP phosphodiesterase 4B (Homo sapiens)", "inactive"],
  ["Cc1cccc(C)c1OC[C@H](C)N", "3',5'-cyclic-AMP phosphodiesterase 4B (Homo sapiens)", "inactive"],
  ["COCCn1c(=O)c(-c2ccc(OC)cc2)nc2cnc(Nc3ccccc3)nc21", "3',5'-cyclic-AMP phosphodiesterase 4B (Homo sapiens)", "inactive"],
  ["COc1ccc(NC(=O)N2CC3(CCN(C(=O)c4cc(C(F)(F)F)cc(C(F)(F)F)c4)CC3)C2)cc1", "3',5'-cyclic-AMP phosphodiesterase 4B (Homo sapiens)", "inactive"],
  ["N#Cc1ccc(CN2CCC3(CC2)CCN(C(=O)c2csnn2)CC3)cc1", "3',5'-cyclic-AMP phosphodiesterase 4B (Homo sapiens)", "inactive"],
  ["O=c1cnc2cnc(Nc3ccccc3)nc2n1CCc1ccccc1", "3',5'-cyclic-AMP phosphodiesterase 4B (Homo sapiens)", "active"],
  ["COc1ccc(Oc2ncc3nc(-c4ccc(OC)cc4)c(=O)n(CCC#N)c3n2)cc1", "3',5'-cyclic-AMP phosphodiesterase 4B (Homo sapiens)", "inactive"],
  ["COc1ccc2[nH]cc(CCNc3ccnc(-c4c(C)noc4C)n3)c2c1", "3',5'-cyclic-AMP phosphodiesterase 4B (Homo sapiens)", "inactive"],
  ["Cc1noc(C)c1C(=O)N1CCC[C@@]2(CCN(Cc3nccs3)C2)C1", "3',5'-cyclic-AMP phosphodiesterase 4B (Homo sapiens)", "inactive"],
  ["O=c1c(-c2cc(F)cc(F)c2)nc2cncnc2n1Cc1ccc(F)cc1", "3',5'-cyclic-AMP phosphodiesterase 4B (Homo sapiens)", "inactive"],
  ["CN(C)C(=O)c1ccc(-c2ccc3ncnc(NC4CCNCC4)c3c2)cc1", "3',5'-cyclic-AMP phosphodiesterase 4B (Homo sapiens)", "inactive"],
  ["COC(=O)N1CCC2(CCCN(c3cccc(-c4ccccc4)c3)C2)CC1", "3',5'-cyclic-AMP phosphodiesterase 4B (Homo sapiens)", "inactive"],
  ["Cc1nc2cnc(Oc3ccccc3)nc2n(C2CC2)c1=O", "3',5'-cyclic-AMP phosphodiesterase 4B (Homo sapiens)", "inactive"],
  ["COc1ccc(-c2nc3cnc(OC)nc3n(-c3ccccc3)c2=O)cc1", "3',5'-cyclic-AMP phosphodiesterase 4B (Homo sapiens)", "inactive"],
  ["CN1CC[C@@]2(CCCN(C(=O)c3cccn3C)C2)C1", "3',5'-cyclic-AMP phosphodiesterase 4B (Homo sapiens)", "inactive"],
  ["O=c1c(-c2cccs2)nc2cnc(Nc3ccccc3)nc2n1C[C@H]1CCCO1", "3',5'-cyclic-AMP phosphodiesterase 4B (Homo sapiens)", "inactive"],
  ["COc1cccc(Cn2c(=O)c(-c3cccc(C#N)c3)nc3cnc(Nc4ccccc4)nc32)c1", "3',5'-cyclic-AMP phosphodiesterase 4B (Homo sapiens)", "inactive"],
  ["N#CCCn1c(=O)c(-c2ccc(F)cc2)nc2cnc(Oc3cccc(Cl)c3)nc21", "3',5'-cyclic-AMP phosphodiesterase 4B (Homo sapiens)", "inactive"],
  ["COc1ccc(NC(=O)N2CCC3(CC2)CCN(C(=O)c2ccncc2)CC3)cc1", "3',5'-cyclic-AMP phosphodiesterase 4B (Homo sapiens)", "inactive"],
  ["O=S(=O)(c1ccccc1)N1CCC2(CCCN(c3ccccn3)C2)CC1", "3',5'-cyclic-AMP phosphodiesterase 4B (Homo sapiens)", "inactive"],
  ["COc1ccc(C(=O)N2CCC3(CCCN(c4ccccn4)C3)CC2)cc1", "3',5'-cyclic-AMP phosphodiesterase 4B (Homo sapiens)", "inactive"]
]}
